- system-tested: Tyrosine-protein kinase FRK (Homo sapiens) (UniProt P42685)
- Sequence (P42685 whole entry): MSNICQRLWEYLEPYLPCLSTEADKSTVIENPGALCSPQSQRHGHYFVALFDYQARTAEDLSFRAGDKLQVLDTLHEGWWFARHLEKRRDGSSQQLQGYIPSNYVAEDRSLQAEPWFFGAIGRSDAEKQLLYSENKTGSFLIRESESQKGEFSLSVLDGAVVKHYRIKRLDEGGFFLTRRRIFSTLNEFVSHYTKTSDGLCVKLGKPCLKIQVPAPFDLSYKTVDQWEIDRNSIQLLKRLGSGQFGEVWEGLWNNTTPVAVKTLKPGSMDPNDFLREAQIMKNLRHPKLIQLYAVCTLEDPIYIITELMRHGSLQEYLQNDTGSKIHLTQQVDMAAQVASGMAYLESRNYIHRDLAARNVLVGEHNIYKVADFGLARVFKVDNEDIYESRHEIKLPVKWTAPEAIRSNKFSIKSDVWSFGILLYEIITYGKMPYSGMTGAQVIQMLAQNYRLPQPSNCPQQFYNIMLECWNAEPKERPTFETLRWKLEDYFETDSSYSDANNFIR
- condition-label: at 10 µM
readout: residual activity (%)
Please state the figure in %; there is no need to write the unit.

record-smiles | residual activity [%]
O=c1cc(-c2cccc3c2Sc2ccccc2S3)oc(N2CCOCC2)c1 | 92
O=C(Nc1cccc(Nc2nccc(Nc3cccc(C(F)(F)F)c3)n2)c1)C1CC1 | 11

// next entry
Which residual activity reading was recorded for the compound N#Cc1cnc2cnc(NCc3cccnc3)cc2c1Nc1ccc(F)c(Cl)c1 ? 22

###

- system-tested: Serine/threonine-protein kinase Chk2 (Homo sapiens)
- condition-label: at 1 µM
Hi! Just check whether residual activity is below 90%. Below gives Satisfied, equal or above gives Not satisfied.

Observe how each entry below is paired with its result.
compound | group-label
COc1cc2ncnc(Nc3ccc(Oc4ccccc4)cc3)c2cc1OC | Satisfied
O=C1NC(=O)c2c1c1c3ccccc3[nH]c1c1[nH]c3cc(Br)ccc3c21 | Satisfied
O=[N+]([O-])c1ccc(-c2nc(-c3ccc(F)cc3)c(-c3ccncc3)[nH]2)cc1 | Not satisfied

Dear colleague, could you confirm whether residual activity of O=C1Nc2ccccc2/C1=C1/Nc2ccccc2/C1=N\OCCC(O)CO (stereo not given) falls below 90%? Thanks. Satisfied

Dear colleague, could you confirm whether residual activity of O=C1NC(=O)/C(=C\c2ccc3nccnc3c2)S1 falls below 90%? Thanks. Satisfied

###

- system-tested: Protein kinase C iota type (Homo sapiens)
- condition-label: at 10 µM
readout: residual activity (%)
Please state the figure in %; there is no need to write the unit.

Answered cases to consult:
record-smiles | measured-number
Ic1cccc(CSc2nnc(-c3ccncc3)o2)c1 | 107
Oc1n[nH]c2nnc(-c3c(-c4ccccc4)nn4ccccc34)cc12 | 103

Which residual activity reading was recorded for the compound c1ccc(-c2n[nH]cc2-c2ccnc3ccccc23)nc1 ? 91

###

- system-tested: Tyrosine-protein kinase Blk (Homo sapiens) (UniProt P51451)
- Sequence (P51451 2-505 limits assumed): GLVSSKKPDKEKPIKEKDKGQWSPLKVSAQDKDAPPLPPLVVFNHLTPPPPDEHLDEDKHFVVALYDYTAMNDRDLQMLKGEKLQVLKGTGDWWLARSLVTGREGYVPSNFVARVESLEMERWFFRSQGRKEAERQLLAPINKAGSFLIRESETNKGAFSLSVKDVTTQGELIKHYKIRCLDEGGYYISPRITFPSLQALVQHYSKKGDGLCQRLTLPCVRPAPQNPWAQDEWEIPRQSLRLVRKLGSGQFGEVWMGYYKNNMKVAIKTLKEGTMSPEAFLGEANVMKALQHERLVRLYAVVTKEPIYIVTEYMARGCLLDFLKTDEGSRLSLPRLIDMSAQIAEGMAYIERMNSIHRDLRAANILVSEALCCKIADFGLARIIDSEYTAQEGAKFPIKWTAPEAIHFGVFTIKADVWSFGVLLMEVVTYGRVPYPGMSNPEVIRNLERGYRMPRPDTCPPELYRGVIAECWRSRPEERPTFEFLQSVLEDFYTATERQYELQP
- condition-label: at 1 µM
Measured residual activity of individual entries
Please state the figure in %; there is no need to write the unit.

Answered cases to consult:
compound | residual activity (%)
O=C1Nc2ccccc2/C1=C1/Nc2ccccc2/C1=N\OCCC(O)CO (stereo not given) | 4
O=Nc1c(-c2c(O)[nH]c3ccccc23)[nH]c2ccccc12 | 11
CO[C@H]1C[C@@H]2CC[C@@H](C)[C@@](O)(O2)C(=O)C(=O)N2CCCC[C@H]2C(=O)O[C@H]([C@H](C)C[C@@H]2CC[C@@H](O)[C@H](OC)C2)CC(=O)[C@H](C)/C=C(\C)[C@@H](O)[C@@H](OC)C(=O)[C@H](C)C[C@H](C)/C=C/C=C/C=C/1C | 90
O=C1NC(=O)c2c1c1c3ccccc3[nH]c1c1[nH]c3cc(Br)ccc3c21 | 102
N#C/C(=C(\N)Sc1ccc(N)cc1)c1ccccc1C(F)(F)F | 90
Oc1ccc(-c2nc(-c3ccc(F)cc3)c(-c3ccncc3)[nH]2)cc1 | 109

Which residual activity reading was recorded for the compound C[C@@H](N)[C@H]1CC[C@H](C(=O)Nc2ccncc2)CC1 ? 92

Which residual activity reading was recorded for the compound Cc1nc(-c2ccccc2)c(-c2ccncc2)o1 ? 95

Which residual activity reading was recorded for the compound CN(C)c1ccc(/C=C2\C(=O)Nc3ccccc32)cc1 ? 87

Which residual activity reading was recorded for the compound O=C1NC(=O)/C(=C/c2ccc3c(c2)OC(F)(F)O3)S1 ? 119

Which residual activity reading was recorded for the compound O=C1NC(=O)c2cc(Nc3ccc(F)cc3)c(Nc3ccc(F)cc3)cc21 ? 98

Which residual activity reading was recorded for the compound COc1ccc(OC)c2c(=S)c3ccccc3[nH]c12 ? 111

Which residual activity reading was recorded for the compound N#Cc1cnc2cnc(NCc3cccnc3)cc2c1Nc1ccc(F)c(Cl)c1 ? 4

Which residual activity reading was recorded for the compound CC#CC(=O)Nc1cc2c(Nc3ccc(F)c(Cl)c3)ncnc2cn1 ? 82

Which residual activity reading was recorded for the compound CC[n+]1c(/C=C/N(C)c2ccccc2)n(-c2ccccc2)c2ccc(-c3nc4ccccc4s3)cc21 ? 100

Which residual activity reading was recorded for the compound Cc1ccc(S(=O)(=O)/C=C/C#N)cc1 ? 108

###

- system-tested: Mitogen-activated protein kinase 9 (Homo sapiens) (UniProt P45984)
- Sequence (P45984 whole entry, looked up): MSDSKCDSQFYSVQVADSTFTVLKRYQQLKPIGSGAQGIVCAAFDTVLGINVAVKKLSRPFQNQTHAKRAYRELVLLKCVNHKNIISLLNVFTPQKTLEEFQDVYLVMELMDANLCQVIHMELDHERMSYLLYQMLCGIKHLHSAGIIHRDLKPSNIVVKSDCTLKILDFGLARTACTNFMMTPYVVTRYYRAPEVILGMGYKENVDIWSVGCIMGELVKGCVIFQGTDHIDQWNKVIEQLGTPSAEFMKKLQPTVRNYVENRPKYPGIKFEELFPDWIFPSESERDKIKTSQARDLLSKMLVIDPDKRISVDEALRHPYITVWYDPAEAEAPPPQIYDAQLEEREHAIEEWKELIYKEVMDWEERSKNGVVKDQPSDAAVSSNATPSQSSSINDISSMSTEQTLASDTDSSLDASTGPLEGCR
- condition-label: at 1 µM
- Description: Millipore: Percentage of residual kinase activity of MAPK9 at 1uM relative to control. Control inhibitor: Jnk Inhibitor II at 100.0uM. Buffer: 50 mM Tris pH 7.5, 0.1 mM EGTA, 0.1% ?-mercaptoethanol
readout: residual activity
Kindly format the answer as number then unit.

record-smiles | residual activity
CC[n+]1c(/C=C/N(C)c2ccccc2)n(-c2ccccc2)c2ccc(-c3nc4ccccc4s3)cc21 | 113%
CC(C)n1cnc2/c(=N/c3cccc(Cl)c3)nc(NCCO)[nH]c21 | 97%
Nc1ccc2ncnc(NCCc3ccc(Oc4ccccc4)cc3)c2c1 | 93%
COc1cc2ncnc(Nc3ccc(NC(=O)c4ccccc4)cc3)c2cc1OC | 109%
COc1ccc(S(=O)(=O)N(CCO)c2ccccc2CN(C)C/C=C/c2ccc(Cl)cc2)cc1 | 92%

Which residual activity reading was recorded for the molecule Oc1n[nH]c2nnc(-c3c(-c4ccccc4)nn4ccccc34)cc12 ? 93%

Which residual activity reading was recorded for the molecule Cn1nc2c3c(cccc31)C(=O)c1ccccc1-2 ? 81%

Which residual activity reading was recorded for the molecule COc1ccc(C(=O)Nc2sc3c(c2C(N)=O)CCCC3)cc1OC ? 99%

Which residual activity reading was recorded for the molecule Cc1nc2cc3nc(-c4cccs4)cnc3cc2n1C ? 106%

Which residual activity reading was recorded for the molecule CCN(CC)CCCCN1c2ccccc2Oc2ccc(Cl)cc21 ? 106%

Which residual activity reading was recorded for the molecule CO[C@H]1[C@@H](OC)C[C@H](C)[C@@H](OC)C2=CC(=O)C=C(NC(=O)/C(C)=C/C=C/[C@H](OC)[C@@H](OC(N)=O)/C(C)=C/[C@@H]1C)C2=O ? 114%

Which residual activity reading was recorded for the molecule O=C(O)c1ccc2c3c1cccc3c(=O)n1c3ccccc3nc21 ? 83%

Which residual activity reading was recorded for the molecule COc1cc2ncnc(Nc3ccc(Oc4ccccc4)cc3)c2cc1OC ? 121%

Which residual activity reading was recorded for the molecule CC(=O)c1ccc(N2CCOCC2)cc1O ? 101%

Which residual activity reading was recorded for the molecule Cc1cc2ncc(-c3ccccc3)nc2cc1C ? 108%

Which residual activity reading was recorded for the molecule Nc1n[nH]c2nnc(-c3c(-c4ccccc4)nn4ccccc34)cc12 ? 55%

Which residual activity reading was recorded for the molecule O=C1Nc2ccc(Br)cc2/C1=C\c1cc2c([nH]1)CCCC2 ? 101%

Which residual activity reading was recorded for the molecule Nc1cccc(-c2cc3c(Oc4cccc(O)c4)ncnc3[nH]2)c1 ? 90%

###

- system-tested: TGF-beta receptor type-1 (Homo sapiens) (UniProt P36897)
- Sequence (P36897 whole entry): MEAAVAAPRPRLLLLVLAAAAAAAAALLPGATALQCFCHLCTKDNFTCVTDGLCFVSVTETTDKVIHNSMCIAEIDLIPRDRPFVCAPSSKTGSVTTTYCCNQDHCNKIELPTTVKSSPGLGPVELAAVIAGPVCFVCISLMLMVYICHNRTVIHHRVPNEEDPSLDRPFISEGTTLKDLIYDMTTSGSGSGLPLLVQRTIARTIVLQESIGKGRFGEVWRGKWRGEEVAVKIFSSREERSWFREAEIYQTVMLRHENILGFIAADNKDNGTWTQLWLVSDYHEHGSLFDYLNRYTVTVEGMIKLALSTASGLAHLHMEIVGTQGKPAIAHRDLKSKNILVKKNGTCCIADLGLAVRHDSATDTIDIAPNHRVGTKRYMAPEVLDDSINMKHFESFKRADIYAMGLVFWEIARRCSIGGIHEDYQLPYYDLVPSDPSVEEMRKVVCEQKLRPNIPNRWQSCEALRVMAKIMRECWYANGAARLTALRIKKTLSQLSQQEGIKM
- condition-label: at 10 µM
- Description: Millipore: Percentage of residual kinase activity of TGFBR1 at 10uM relative to control. Control inhibitor: Phosphoric acid* at 0.3uM. Buffer: 8 mM MOPS pH 7.0, 0.2 mM EDTA, 1 mM MnCl2
Measured residual activity of individual entries
Please state the figure in %; there is no need to write the unit.

Answered cases to consult:
record-smiles | measurement-units | measured-number
CN(C)CCCn1cc(C2=C(c3c[nH]c4ccccc34)C(=O)NC2=O)c2ccccc21 | % | 71
CO[C@H]1C[C@@H]2CC[C@@H](C)[C@@](O)(O2)C(=O)C(=O)N2CCCC[C@H]2C(=O)O[C@H]([C@H](C)C[C@@H]2CC[C@@H](O)[C@H](OC)C2)CC(=O)[C@H](C)/C=C(\C)[C@@H](O)[C@@H](OC)C(=O)[C@H](C)C[C@H](C)/C=C/C=C/C=C/1C | % | 78
Cc1ccc(S(=O)(=O)/C=C/C#N)cc1 | % | 81

Which residual activity reading was recorded for the compound O=[N+]([O-])c1ccc(-c2nc(-c3ccc(F)cc3)c(-c3ccncc3)[nH]2)cc1 ? 59

Which residual activity reading was recorded for the compound CC(=O)c1ccc(N2CCOCC2)cc1O ? 90

Which residual activity reading was recorded for the compound CC#CC(=O)Nc1cc2c(Nc3ccc(F)c(Cl)c3)ncnc2cn1 ? 89

Which residual activity reading was recorded for the compound Cc1cncc2cccc(S(=O)(=O)N3CCCN(C(=O)CN)C[C@H]3C)c12 ? 86

Which residual activity reading was recorded for the compound Nc1ccc2ncnc(NCCc3ccc(Oc4ccccc4)cc3)c2c1 ? 112

Which residual activity reading was recorded for the compound O=C1NC(=O)c2c1c1c3ccccc3[nH]c1c1[nH]c3cc(Br)ccc3c21 ? 98

Which residual activity reading was recorded for the compound O=C(Nc1cccc(Nc2cc(Nc3cccc(C(F)(F)F)c3)ncn2)c1)C1CC1 ? 77

Which residual activity reading was recorded for the compound CCC(=O)Nc1ccc2ncnc(Nc3cccc(Br)c3)c2c1 ? 94

###

- system-tested: Tyrosine-protein kinase Fgr (Homo sapiens)
- condition-label: at 10 µM
Mark true for reported residual activity of 40% or greater; mark false for anything smaller.

record-smiles | system-tested | group-label
Cc1nc2cc3nc(-c4cccs4)cnc3cc2n1C | Tyrosine-protein kinase Fgr (Homo sapiens) | true
Oc1c2ccccc2c2c3c(cccc13)N=N2 | Tyrosine-protein kinase Fgr (Homo sapiens) | false
CO[C@H]1C[C@@H]2CC[C@@H](C)[C@@](O)(O2)C(=O)C(=O)N2CCCC[C@H]2C(=O)O[C@H]([C@H](C)C[C@@H]2CC[C@@H](O)[C@H](OC)C2)CC(=O)[C@H](C)/C=C(\C)[C@@H](O)[C@@H](OC)C(=O)[C@H](C)C[C@H](C)/C=C/C=C/C=C/1C | Tyrosine-protein kinase Fgr (Homo sapiens) | true

Determine whether measured residual activity meets or exceeds 40% for COc1cc2ncnc(Nc3ccc(Oc4ccccc4)cc3)c2cc1OC false

Determine whether measured residual activity meets or exceeds 40% for Nc1cccc(-c2cc3c(Oc4cccc(O)c4)ncnc3[nH]2)c1 false

Determine whether measured residual activity meets or exceeds 40% for Nc1nc(Nc2ccc(S(N)(=O)=O)cc2)nn1C(=S)Nc1c(F)cccc1F false

Determine whether measured residual activity meets or exceeds 40% for O=C1NC(=O)c2cc(Nc3ccc(F)cc3)c(Nc3ccc(F)cc3)cc21 true

Determine whether measured residual activity meets or exceeds 40% for Cc1cncc2cccc(S(=O)(=O)N3CCCN(C(=O)CN)C[C@H]3C)c12 true

Determine whether measured residual activity meets or exceeds 40% for O=C1c2ccccc2-[n+]2ccc3c([nH]c4ccccc43)c21 true
